Where these numbers come from: patent EP4603105A1

Tested on: human lung cancer strain NCI-H441
Experiment: NCI-H441 cell proliferation inhibitory activity (CellTiter-Glo, 4 days)
Assay type: cell-based
Conditions: 50% proliferation inhibitory concentration, four days, read-out: NCl-H441 IC50
// classify(record): look up IC50 in ranges b0 = under 10 nM, b1 = from 10 nM up to 70 nM, b2 = 70 nM and over

Query: Class label required: CCO[C@@H]1C[C@H]2C(=O)NC3(CCC3)C(=O)N(C)[C@@H](C3CCCC3)C(=O)N(C)[C@H](C(=O)N(C)C)CC(=O)N(C)[C@@H](CC3CCCC3)C(=O)N[C@@H]([C@@H](C)CC)C(=O)N(C)CC(=O)N(C)[C@H]3C/C=C\CCN(C3=O)[C@@H](Cc3ccc(C(F)(F)F)cc3)C(=O)N(C)CC(=O)N[C@@H](CCc3ccc4sccc4c3)C(=O)N2C1
Response: b2

Query: CCO[C@@H]1C[C@H]2C(=O)NC3(CCC3)C(=O)N(C)[C@@H](C3CCCC3)C(=O)N(C)[C@H](C(=O)N(C)C)CC(=O)N(C)[C@@H](Cc3ccccc3C#N)C(=O)N[C@@H]([C@@H](C)CC)C(=O)N(C)CC(=O)N(C)[C@H]3CCCCCN(C3=O)[C@@H](Cc3ccc(F)cc3)C(=O)N(C)CC(=O)N[C@@H](CCc3cc(F)c(C(F)(F)F)c(F)c3)C(=O)N2C1 ?
Response: b2

Query: What about CCO[C@@H]1C[C@H]2C(=O)NC3(CCC3)C(=O)N(C)[C@@H](C3CCCC3)C(=O)N(C)[C@H](C(=O)N(C)C)CC(=O)N(C)[C@@H](CC(C)C)C(=O)N[C@@H]([C@@H](C)CC)C(=O)N(C)CC(=O)N(C)[C@H]3C/C=C\CCN(C3=O)[C@@H](Cc3ccc(C(F)(F)F)cc3)C(=O)N(C)CC(=O)N[C@@H](CCc3ccc(C(F)(F)F)c(OC)c3)C(=O)N2C1 ?
Response: b0

Query: Now the molecule CCO[C@@H]1C[C@H]2C(=O)NC3(CCC3)C(=O)N(C)[C@@H](C3CCCC3)C(=O)N(C)[C@H](C(=O)N(C)C)CC(=O)N(C)[C@@H](CC3CC3)C(=O)N[C@@H]([C@@H](C)CC)C(=O)N(C)CC(=O)N(C)[C@H]3C/C=C\CCN(C3=O)[C@@H](Cc3ccc(C)cc3)C(=O)N(C)CC(=O)N[C@@H](CCc3cc(F)c(Cl)c(F)c3)C(=O)N2C1
Response: b1

Query: Record: CCO[C@@H]1C[C@H]2C(=O)NC3(CCC3)C(=O)N(C)[C@@H](C3CCCC3)C(=O)N(C)[C@H](C(=O)N(C)C)CC(=O)N(C)[C@@H](CC3CCCC3)C(=O)N[C@@H]([C@@H](C)CC)C(=O)N(C)CC(=O)N(C)[C@H]3C/C=C\CCN(C3=O)[C@@H](Cc3ccc(C(F)(F)F)cc3)C(=O)N(C)CC(=O)N[C@@H](CCc3ccc(C(F)(F)F)c(OC)c3)C(=O)N2C1
Response: b0

Query: Same thing, different molecule: CCO[C@@H]1C[C@H]2C(=O)NC3(CCC3)C(=O)N(C)[C@@H](C(CC)CC)C(=O)N(C)[C@H](C(=O)N3CCCC3)CC(=O)N(C)[C@@H](C)C(=O)N[C@@H]([C@@H](C)CC)C(=O)N(C)CC(=O)N(C)[C@H]3C/C=C\CCN(C3=O)[C@@H](CC3CCCCC3)C(=O)N(C)CC(=O)N[C@@H](CCc3cc(F)c(C(F)(F)F)c(F)c3)C(=O)N2C1
Response: b2

Query: Also, CCO[C@@H]1C[C@H]2C(=O)NC3(CCC3)C(=O)N(C)[C@@H](C3CCCC3)C(=O)N(C)[C@H](C(=O)N(C)C)CC(=O)N(C)[C@@H](CC3CC3)C(=O)N[C@@H]([C@@H](C)CC)C(=O)N(C)CC(=O)N(C)[C@H]3C/C=C\CCN(C3=O)[C@@H](Cc3ccc(F)cc3)C(=O)N(C)CC(=O)N[C@@H](CCc3cc(F)c(Cl)c(F)c3)C(=O)N2C1 please.
Response: b2

Query: Continue with CCO[C@@H]1C[C@H]2C(=O)NC3(CCC3)C(=O)N(C)[C@@H](C3CCCC3)C(=O)N(C)[C@H](C(=O)N(C)C)CC(=O)N(C)[C@@H](COC3CC3)C(=O)N[C@@H]([C@@H](C)CC)C(=O)N(C)CC(=O)N(C)[C@H]3C/C=C\CCN(C3=O)[C@@H](Cc3ccc(C(F)(F)F)cc3)C(=O)N(C)CC(=O)N[C@@H](CCc3cc(F)c(C(F)(F)F)c(F)c3)C(=O)N2C1
Response: b1

Query: How about CCO[C@@H]1C[C@H]2C(=O)NC3(CCC3)C(=O)N(C)[C@@H](C3CCCC3)C(=O)N(C)[C@H](C(=O)N3CCCCC3)CC(=O)N(C)[C@@H](CC(C)C)C(=O)N[C@@H]([C@@H](C)CC)C(=O)N(C)CC(=O)N(C)[C@H]3C/C=C\CCN(C3=O)[C@@H](Cc3ccc(C(F)(F)F)cc3)C(=O)N(C)CC(=O)N[C@@H](CCc3cc(F)c(C(F)(F)F)c(F)c3)C(=O)N2C1 ?
Response: b1

Query: Now try CCO[C@@H]1C[C@H]2C(=O)NC3(CCC3)C(=O)N(C)[C@@H](C3CCCC3)C(=O)N(C)[C@H](C(=O)N(C)C)CC(=O)N(C)[C@@H](CC(F)F)C(=O)N[C@@H]([C@@H](C)CC)C(=O)N(C)CC(=O)N(C)[C@H]3CCCCCN(C3=O)[C@@H](Cc3ccc(F)cc3)C(=O)N(C)CC(=O)N[C@@H](CCc3cc(F)c(C(F)(F)F)c(F)c3)C(=O)N2C1 .
Response: b1

----------
Molecular target: UniProt:P01116
Sequence (P01116 1-188 isoform P01116-2): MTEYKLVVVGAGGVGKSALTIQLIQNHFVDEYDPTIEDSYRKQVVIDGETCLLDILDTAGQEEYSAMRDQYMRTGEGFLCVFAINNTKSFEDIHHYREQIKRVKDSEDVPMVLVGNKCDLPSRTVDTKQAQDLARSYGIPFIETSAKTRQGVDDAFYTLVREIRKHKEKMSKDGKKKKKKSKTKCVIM
Assay: Binding to KRAS by surface plasmon resonance (SPR), dissociation constant KD
Details: Single Cycle Kinetics, 1:1 binding model
ASSAY_ENDPOINT: pKd
Friendly reminder that pKd comes from taking -log10 of the concentration in mol/L.

INSERT INTO assay_data (structure_notation, experimental_target, assay_endpoint, value_measured) VALUES
  ('CCO[C@@H]1C[C@H]2C(=O)NC3(CCC3)C(=O)N(C)[C@@H](C3CCCC3)C(=O)N(C)[C@H](C)CC(=O)N(C)[C@@H](CC(C)C)C(=O)N[C@@H]([C@@H](C)CC)C(=O)N(C)CC(=O)N(C)[C@H]3C/C=C\CCN(C3=O)[C@@H](Cc3ccc(F)cc3C)C(=O)N(C)CC(=O)N[C@@H](CCc3cc(F)c(C(F)(F)F)c(F)c3)C(=O)N2C1', 'UniProt:P01116', 'pKd', 8.64);

Attention now shifts to the item below.
Query: Quick one: pKd for CC[C@H](C)[C@@H]1NC(=O)[C@H](CC(C)C)N(C)C(=O)C[C@@H](C(=O)N(C)C)N(C)C(=O)[C@H](C2CCCC2)N(C)C(=O)C2(CCC2)NC(=O)[C@@H]2C[C@H](C)CN2C(=O)[C@H](CCc2ccc(C(F)(F)F)c(OC)c2)NC(=O)CN(C)C(=O)[C@H](Cc2ccc(C)cc2)N2CC/C=C\C[C@@H](C2=O)N(C)C(=O)CN(C)C1=O ?
Response: 10.08

----------
Test system: human lung cancer strain NCI-H441
Format: cell-based
Each entry below carries its reported IC50.
I only need the number, in nM, no unit after it.

INSERT INTO assay_data (compound, assay_endpoint, value_measured) VALUES
  ('CCO[C@@H]1C[C@H]2C(=O)NC3(CC(C)(C)C3)C(=O)N(C)[C@@H](C(CC)CC)C(=O)N(C)[C@H](C(=O)N(C)C)CC(=O)N(C)[C@@H](C(C)C)C(=O)N[C@@H]([C@@H](C)CC)C(=O)N(C)CC(=O)N(C)[C@H]3C/C=C\CCN(C3=O)[C@@H](Cc3ccc(C)cc3)C(=O)N(C)CC(=O)N[C@@H](CCc3cc(F)c(C(F)(F)F)c(F)c3)C(=O)N2C1 [PP2153]', 'IC50', 20);

Query: IC50 lookup needed for CCO[C@@H]1C[C@H]2C(=O)NC3(CC(C)(C)C3)C(=O)N(C)[C@@H](C3CCCC3)C(=O)N(C)[C@H](C(=O)N(C)C)CC(=O)N(C)[C@@H](CC3CC3)C(=O)N[C@@H]([C@@H](C)CC)C(=O)N(C)CC(=O)N(C)[C@H]3C/C=C\CCN(C3=O)[C@@H](Cc3ccc(C)cc3)C(=O)N(C)CC(=O)N[C@@H](CCc3ccc(C(F)(F)F)c(OC)c3)C(=O)N2C1 [PP1903] , thanks.
Response: 5.5

----------
System: human lung cancer strain NCI-H441
Format: cell-based
Entries and their pIC50 values follow.
Recall that pIC50 is obtained by taking minus log10 of the concentration measured in molar.

Study these solved cases before continuing.
INSERT INTO results (structure_notation, value_measured) VALUES
  ('CCC[C@H]1C(=O)N[C@@H]([C@@H](C)CC)C(=O)N(C)CC(=O)N(C)[C@H]2C/C=C\CCN(C2=O)[C@@H](Cc2ccc(C(F)(F)F)cc2)C(=O)N(C)CC(=O)N[C@@H](CCc2ccc(C(F)(F)F)c(Cl)c2)C(=O)N2C[C@H](OCC)C[C@H]2C(=O)NC2(CC(C)(C)C2)C(=O)N(C)[C@@H](CC(C)C)C(=O)N(C)[C@H](C(=O)N(C)C)CC(=O)N1C', 8.09),
  ('CCO[C@@H]1C[C@H]2C(=O)NC3(CCC3)C(=O)N(C)[C@@H](C(CC)CC)C(=O)N(C)[C@H](C(=O)N3CCCC3)CC(=O)N(C)[C@H]3CCC/C=C/c4ccc(cc4)C[C@@H](C(=O)N(C)CC(=O)N[C@@H](CCc4ccc(Cl)c(Cl)c4)C(=O)N2C1)N1CC/C=C\C[C@@H](C1=O)N(C)C(=O)CN(C1CC1)C(=O)[C@H]([C@@H](C)CC)NC3=O', 8.00);

Query: Name the reported pIC50 value associated with the compound CCO[C@@H]1C[C@H]2C(=O)NC3(CCC3)C(=O)N(C)[C@@H](C(CC)CC)C(=O)N(C)[C@H](C(=O)N3CCCC3)CC(=O)N(C)[C@H]3CCC/C=C/c4ccc(cc4)C[C@@H](C(=O)N(C)CC(=O)N[C@@H](CCc4cc(F)c(C(F)(F)F)c(F)c4)C(=O)N2C1)N1CC/C=C\C[C@@H](C1=O)N(C)C(=O)CN(C1CC1)C(=O)[C@H]([C@@H](C)CC)NC3=O
Response: 8.34
